Record form. Attribute: growth inhibition. Fill in for each entry.
Test: NCI Yeast Anticancer Drug Screen. Data for the mlh1 rad18 strain (AID 175)
Settings: S. cerevisiae mlh1 rad18 strain growth inhibition; at 50.0 µM; stronger effect = higher value
Compounds without any hit were thinned out: in the full panel of roughly 79,000, 15% have a hit. *1 amine or outer side, *2 acyl side, *3 side chain or, on linkers, in order; H or OH if unused. Where a SMILES comes first, the peptide text is derived from it. Bridges are numbered along the chain shown (N, C = ends). Roman numbers before positions name the chains, in order. [ ]: non-standard residue; d: D form. Actinocin(1to9) = Cc1c2oc3c(C)ccc(C(=O)[*:2])c3nc-2c(C(=O)[*:1])c(N)c1=O; NMeV = CN[CH](C(=O)O)C(C)C; Sar = CNCC(=O)O
Write it as a number; the unit % goes unstated.

## Task Look at this molecule and give its reported growth inhibition. O=Nc1ccc2ccccc2c1O
## Result 84

## Task Look at this molecule and give its reported growth inhibition. CCCCCCCCCCCC[n+]1ccc(CCCCCCCCC)cc1
## Result 97.6

## Task Look at this molecule and give its reported growth inhibition. Oc1ccc(Cl)cc1Cc1cc(Cl)ccc1O
## Result -7.85

## Task Look at this molecule and give its reported growth inhibition. COc1ccc(Nc2nc3ccc(C(F)(F)F)cc3nc2C(=O)O)cc1
## Result 54.5

## Task Look at this molecule and give its reported growth inhibition. Nc1ccc(C(=O)/C=C/c2ccccc2)cc1
## Result 96.3

## Task Look at this molecule and give its reported growth inhibition. Cc1cc(C(N)=O)cc(C)c1C(=O)OCCCl
## Result 58.1

## Task Look at this molecule and give its reported growth inhibition. Oc1c(C(Nc2ccccc2)c2ccccc2)ccc2cccnc12 (stereo unspecified)
## Result 96

## Task Look at this molecule and give its reported growth inhibition. COc1cccc(NC(=O)C(C#N)=C(SC)SC)c1
## Result 90

## Task Look at this molecule and give its reported growth inhibition. O=C(NOC(=O)c1ccccc1)c1ccccc1
## Result 99.3

## Task Look at this molecule and give its reported growth inhibition. O=C(Nc1cccc(C(F)(F)F)c1)Oc1ccc(Cl)c2cccnc12
## Result 91.7

## Task Look at this molecule and give its reported growth inhibition. CC(=O)Nc1ccc(C(=O)CCl)cc1
## Result 94.7

## Task Look at this molecule and give its reported growth inhibition. CCOc1cc(F)c([N+](=O)[O-])cc1[N+](=O)[O-]
## Result 98.5

## Task Look at this molecule and give its reported growth inhibition. COc1ccc2c(c1)c(CC(=O)O)c(C)n2C(=O)c1ccc(Cl)cc1
## Result 72

## Task Look at this molecule and give its reported growth inhibition. CCC(C)C1NC(=O)C(NC(=O)c2c3nc4c(C(=O)NC5C(=O)NC(C(C)CC)C(=O)N6CCCC6C(=O)N(C)CC(=O)N(C)C(C(C)C)C(=O)OC5C)ccc(C)c4oc-3c(C)c(=O)c2N)C(C)OC(=O)C(C(C)C)N(C)C(=O)CN(C)C(=O)C2CCCN2C1=O (stereo unspecified) (I: TIP[Sar][NMeV] / II: TIP[Sar][NMeV]; ester I:1-I:C, II:1-II:C; linker I:N-II:N via Actinocin(1to9); configuration not given here)
## Result 88.3

## Task Look at this molecule and give its reported growth inhibition. O=C(NNc1ccccc1)OCc1ccccc1
## Result 32.5

## Task Look at this molecule and give its reported growth inhibition. CCC1CCCCN1C(=S)N/N=C(\C)c1ccccn1 (stereo unspecified)
## Result 90.5

## Task Look at this molecule and give its reported growth inhibition. CN(C)CCN(C)CC(C)(C)C(=O)/C=C/c1ccc(Cl)c(Cl)c1
## Result 70.5

## Task Look at this molecule and give its reported growth inhibition. COC(=O)C(=[N+]=[N-])C(=O)c1ccc([N+](=O)[O-])o1
## Result 98.7

## Task Look at this molecule and give its reported growth inhibition. CN1CCC(CN2c3ccccc3Sc3ccccc32)C1 (stereo unspecified)
## Result 32.2

## Task Look at this molecule and give its reported growth inhibition. CN(C)c1ccc(/C=C/c2sc3ccc4ccccc4c3[n+]2C)cc1
## Result 89.2

## Task Look at this molecule and give its reported growth inhibition. CCCCC(CCc1ccc([N+](=O)[O-])cc1)(C(C)=O)C(=O)OCC (stereo unspecified)
## Result 62
